Origin of the recorded values: ChEMBL document CHEMBL5528049

- TESTED_TARGET: UniProt:P24941
- RUN_DESCRIPTION: Inhibition of CDK2 in human whole blood spiked with CCNE1-amplified human COV318 cells assessed as reduction in retinoblastoma protein phosphorylation at S780 residue incubated overnight by HTRF microplate reader
- Assay type: cell-based
PARAMETER: pIC50
Note on pIC50: it is the negative log10 of concentration, concentration in mol/L.

Consider the compound CC(C)(O)Cn1cc(-c2nc(NC3CCN(S(C)(=O)=O)CC3)ncc2C(F)(F)F)cn1 . State its measured pIC50.
5.92

Consider the compound CS(=O)(=O)N1CCC(Nc2ncc(C(F)(F)F)c(-c3cnn(-c4ccccc4F)c3)n2)CC1 . State its measured pIC50.
5.29

Consider the compound CN1CCC(n2cc(-c3nc(NC4CCN(S(C)(=O)=O)CC4)ncc3C(F)(F)F)cn2)CC1 . State its measured pIC50.
6.15

====

- TESTED_TARGET: Cyclin-dependent kinase 4/cyclin D1 (Homo sapiens)
- Sequence (P11802 whole entry, the tested form may be a part): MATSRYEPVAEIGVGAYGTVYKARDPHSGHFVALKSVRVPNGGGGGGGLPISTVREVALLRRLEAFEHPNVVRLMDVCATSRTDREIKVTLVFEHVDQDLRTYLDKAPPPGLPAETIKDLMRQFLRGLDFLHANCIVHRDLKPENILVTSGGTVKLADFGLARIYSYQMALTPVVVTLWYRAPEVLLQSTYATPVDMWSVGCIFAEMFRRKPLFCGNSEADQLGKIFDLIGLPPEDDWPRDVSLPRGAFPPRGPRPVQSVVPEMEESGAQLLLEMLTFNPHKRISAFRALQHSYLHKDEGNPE
- Sequence (P24385 whole entry, further chain, the tested form may be a part): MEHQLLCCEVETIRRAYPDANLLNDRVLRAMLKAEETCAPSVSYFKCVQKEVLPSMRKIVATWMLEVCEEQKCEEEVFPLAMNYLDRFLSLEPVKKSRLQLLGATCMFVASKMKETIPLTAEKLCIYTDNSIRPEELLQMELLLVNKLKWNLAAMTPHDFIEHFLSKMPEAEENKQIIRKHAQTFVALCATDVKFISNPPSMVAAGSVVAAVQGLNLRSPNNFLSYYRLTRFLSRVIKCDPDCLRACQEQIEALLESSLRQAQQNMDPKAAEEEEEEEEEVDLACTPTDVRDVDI
- RUN_DESCRIPTION: Inhibition of N-terminal GST-tagged human CDK4 (4 to 303 residues)/N-terminal GST-tagged human Cyclin D1 (4 to 295 residues) expressed in Sf9 insect cells incubated for 60 mins in presence of ATP by HTRF assay
I'd appreciate it if you could supply pIC50 values for the items below.
Note on pIC50: it is the negative log10 of concentration, concentration in mol/L.

Tell me its pIC50 on Cyclin-dependent kinase 4/cyclin D1 (Homo sapiens): CS(=O)(=O)N1CCC(Nc2ncc(C(F)(F)F)c(-c3cnn(CC(F)(F)F)c3)n2)CC1
7.96

Tell me its pIC50 on Cyclin-dependent kinase 4/cyclin D1 (Homo sapiens): CS(=O)(=O)N1CCC(Nc2ncc(C(F)(F)F)c(-c3cnn(-c4ccccc4F)c3)n2)CC1
7.85

Tell me its pIC50 on Cyclin-dependent kinase 4/cyclin D1 (Homo sapiens): CS(=O)(=O)N1CCC(Nc2ncc(C(F)(F)F)c(-c3cnn(-c4ccccc4Cl)c3)n2)CC1
8.00

Tell me its pIC50 on Cyclin-dependent kinase 4/cyclin D1 (Homo sapiens): CNCc1ccc(-n2cc(-c3nc(NC4CCN(S(C)(=O)=O)CC4)ncc3C(F)(F)F)cn2)c(Cl)c1
7.96

====

- RUN_DESCRIPTION: Protein binding in human plasma assessed as free fraction incubated for 2 hrs by LC-MS/MS analysis
- Assay type: ADME, cell-free
I'd appreciate it if you could supply fraction unbound at 2 h values for the items below.
Respond numerically, and do not add a unit to the figure.

Consider the compound CC(C)(O)Cn1cc(-c2nc(NC3CCN(S(=O)(=O)C4CC4)CC3)ncc2C#N)cn1 . State its measured fraction unbound at 2 h.
0.35

Consider the compound CNCc1ccc(-n2cc(-c3nc(NC4CCN(S(C)(=O)=O)CC4)ncc3C#N)cn2)c(Cl)c1 . State its measured fraction unbound at 2 h.
0.33

Consider the compound N#Cc1cnc(NC2CCN(S(=O)(=O)c3ccccn3)CC2)nc1-c1cnn(CC(F)(F)F)c1 . State its measured fraction unbound at 2 h.
0.035

Consider the compound CS(=O)(=O)N1CCC(Nc2ncc(C(F)(F)F)c(-c3cnn(-c4ccc(C#N)cc4Cl)c3)n2)CC1 . State its measured fraction unbound at 2 h.
0.012

Consider the compound Cn1cnc(S(=O)(=O)N2CCC(Nc3ncc(C(F)(F)F)c(-c4cnn(CC(F)(F)F)c4)n3)CC2)c1 . State its measured fraction unbound at 2 h.
0.076
